- TARGET: α7-nicotinic acetylcholine receptor (Homo sapiens, UniProt P36544)
- Sequence (P36544 23-502): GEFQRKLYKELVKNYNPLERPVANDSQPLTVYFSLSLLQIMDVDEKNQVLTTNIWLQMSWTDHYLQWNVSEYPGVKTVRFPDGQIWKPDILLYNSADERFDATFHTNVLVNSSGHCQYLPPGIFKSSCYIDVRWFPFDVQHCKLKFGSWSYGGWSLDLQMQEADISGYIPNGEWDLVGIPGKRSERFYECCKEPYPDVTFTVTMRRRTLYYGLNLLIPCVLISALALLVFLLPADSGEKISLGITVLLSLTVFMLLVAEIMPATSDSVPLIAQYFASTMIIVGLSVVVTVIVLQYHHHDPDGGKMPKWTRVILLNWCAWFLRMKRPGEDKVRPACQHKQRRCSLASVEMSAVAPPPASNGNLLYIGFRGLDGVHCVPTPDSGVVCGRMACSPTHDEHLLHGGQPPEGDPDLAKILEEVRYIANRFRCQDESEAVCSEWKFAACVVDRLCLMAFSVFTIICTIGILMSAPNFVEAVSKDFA
- ASSAY TEXT: two-electrode voltage clamp of ACh currents in Xenopus oocytes expressing the human receptor
ATTRIBUTE MEASURED: IC50 (µM)
Please state the figure in µM; there is no need to write the unit.

For the compound shown here, CC1CCC(C(C)C)C(O)C1 (racemic) , give the reported IC50.
32.6
